Every entry's value here was drawn from the supplement of paper PMC9112550.

test system: Escherichia coli TOP10; assay: shrunken log2 fold change of peptide-encoding DNA abundance (4.5 h post-induction vs induction); higher = less antimicrobial activity (less host growth inhibition); conditions: time post-induction: 4.5 h; library: site-saturation at positions 5, 18, 19, 20
Answer class 0 if shrunken log2 fold change is under -0.1, and class 1 if it is -0.1 or more.

query_sequence=RRIRERPPRLPRPRPRPSWSPRP class="class 1"
query_sequence=RRIRPRPPRLPRPRPRPSYAPRP class="class 0"
query_sequence=RRIRPRPPRLPRPRPRPHMFPRP class="class 1"
query_sequence=RRIRMRPPRLPRPRPRPHQWPRP class="class 1"

Then there is this sequence:
In: Record `RRIRNRPPRLPRPRPRPDQAPRP` ; criterion: shrunken log2 fold change no lower than -0.1. Met?
Out: class 1

* * *

tested on: Escherichia coli TOP10; assay: shrunken log2 fold change of peptide-encoding DNA abundance (4.5 h post-induction vs induction); higher = less antimicrobial activity (less host growth inhibition); conditions: time post-induction: 4.5 h; library: site-saturation at positions 5, 18, 19, 20
Recorded shrunken log2 fold change values for a group of sequences are listed next.
Could you respond with only the numeric value?

Field shrunken log2 fold change (entry `RRIRERPPRLPRPRPRPAMDPRP` ) reads 0.283

Field shrunken log2 fold change (entry `RRIRPRPPRLPRPRPRPRVTPRP` ) reads 0.326

Field shrunken log2 fold change (entry `RRIRKRPPRLPRPRPRPLKRPRP` ) reads 0.321

* * *

system: Escherichia coli TOP10; assay: shrunken log2 fold change of peptide-encoding DNA abundance (4.5 h post-induction vs induction); higher = less antimicrobial activity (less host growth inhibition); settings: time post-induction: 4.5 h; library: site-saturation at positions 5, 18, 19, 20
Quantity Kind: shrunken log2 fold change
Could you respond with only the numeric value?

// solved cases for shrunken log2 fold change follow
query_sequence=RRIRTRPPRLPRPRPRPCSMPRP experimental_system="Escherichia coli TOP10" quantity_kind="shrunken log2 fold change" readout_value=-0.179
query_sequence=RRIRFRPPRLPRPRPRPNITPRP experimental_system="Escherichia coli TOP10" quantity_kind="shrunken log2 fold change" readout_value=-0.633
query_sequence=RRIRRRPPRLPRPRPRPMTFPRP experimental_system="Escherichia coli TOP10" quantity_kind="shrunken log2 fold change" readout_value=0.164

Field shrunken log2 fold change (entry `RRIRSRPPRLPRPRPRPWLCPRP` ) reads -0.0753

Field shrunken log2 fold change (entry `RRIRERPPRLPRPRPRPDLQPRP` ) reads 0.00923

Field shrunken log2 fold change (entry `RRIRFRPPRLPRPRPRPHSSPRP` ) reads -0.194

Field shrunken log2 fold change (entry `RRIRNRPPRLPRPRPRPSKRPRP` ) reads -0.0331

Field shrunken log2 fold change (entry `RRIRCRPPRLPRPRPRPAHPPRP` ) reads 0.125

* * *

system: Escherichia coli TOP10; experiment: shrunken log2 fold change of peptide-encoding DNA abundance (4.5 h post-induction vs induction); higher = less antimicrobial activity (less host growth inhibition); details: time post-induction: 4.5 h; library: site-saturation at positions 5, 18, 19, 20;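 also: peptides expressed intracellularly from a pBAD plasmid library in pooled LB shake-flask culture, induced with 0.3% L-arabinose, DNA abundance read by NGS, three biological replicates, DESeq2 with apeglm shrinkage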
Recorded shrunken log2 fold change values for a group of sequences are listed next.
Could you respond with only the numeric value?

// solved cases for shrunken log2 fold change follow
query_sequence=RRIRLRPPRLPRPRPRPQLWPRP readout_value=-0.195
query_sequence=RRIRKRPPRLPRPRPRPINGPRP readout_value=0.00103
query_sequence=RRIRNRPPRLPRPRPRPDDCPRP readout_value=-0.108
query_sequence=RRIRDRPPRLPRPRPRPCEMPRP readout_value=0.63
query_sequence=RRIRQRPPRLPRPRPRPRSGPRP readout_value=0.162
query_sequence=RRIRPRPPRLPRPRPRPDMLPRP readout_value=-0.147

Field shrunken log2 fold change (entry `RRIRVRPPRLPRPRPRPVDFPRP` ) reads -0.289

Field shrunken log2 fold change (entry `RRIRDRPPRLPRPRPRPAMLPRP` ) reads 0.278

Field shrunken log2 fold change (entry `RRIRNRPPRLPRPRPRPEGIPRP` ) reads 0.0204
